System: UACC-257 melanoma
Assay: NCI-60 one-dose screen, 48 h (100 = growth as untreated, 0 = no growth, -100 = all killed)
Conditions: 10 µM unless noted
This is part of a sample that, as a whole, favours compounds with a hit. Of some 83,000 tested, about 20% had one in any assay.
Sorting guide: entries reporting growth beneath 70% go in the yes pile, the rest go in the no pile.

{"molecule": "O=C(Oc1c(Cl)c(Cl)c(Cl)c(Cl)c1Cl)C1CCCN1C(=O)OCc1ccccc1 (centres undefined)", "discrete label": "no"}
{"molecule": "COc1ccc(-c2nsc3c2NC(=O)CC3c2cccc(F)c2)cc1 (centres undefined)", "discrete label": "yes"}
{"molecule": "CCOP(=O)(O)OP(=O)(O)OCC", "discrete label": "no"}
{"molecule": "CC(C)CC(NC(=O)C(CCCN=C(N)N)NC(=O)OCc1ccccc1)C(=O)NC(CNC(=O)/C=C/c1ccccc1)C(C)C (centres undefined)", "discrete label": "no"}

Request: I'd appreciate it if you could check whether COc1c(B(O)O)cccc1-c1nc2ccc3[nH]ncc3c2c2c1CCCC2 has growth smaller than 70%.
Response: yes

Request: State whether 70% exceeds growth recorded for COC(=O)/C=C/c1cc(OC(C)=O)c2c(c1)[C@@H](C(=O)OC)[C@H](c1ccc(OC(C)=O)c(OC(C)=O)c1)O2 .
Response: yes

Request: Item C=CCn1c(C)nc2cc(Nc3nc(N4CCCC4)nc4nc[nH]c34)ccc21 : growth beneath 70%, strictly?
Response: yes

Request: Please let me know if COc1cc(NCCCCC(C)N)c2nccc(C)c2c1 (centres undefined) shows growth below 70%.
Response: no

Request: Lab log: compare recorded growth with 70%; is it strictly lower for CCN(CC)Cc1cc(Nc2ccnc3cc(Cl)ccc23)cc(-c2ccc(Cl)cc2)c1O ?
Response: yes

Request: hey, is growth for Clc1cc(Br)ccc1-c1ccc(CNCC2CCNCC2)o1 lower than 70% or not?
Response: no

Request: State whether 70% exceeds growth recorded for Cc1ccc(NC(=O)c2nc(S(C)=O)oc2-c2ccc(F)cc2)cc1Nc1nccc(-c2cccnc2)n1 (centres undefined) .
Response: no

Request: Is growth of O=C1c2ccccc2C(=O)c2c1oc1ccc3ccccc3c21 strictly below 70%?
Response: no

Request: Hello, I'm reviewing records and need to know if growth of O=C(CN1CCN(c2ccccc2)CC1)N1CCN(c2nnc(-c3ccc(Cl)cc3)c(-c3ccc(Cl)cc3)n2)CC1 is below 70%. Could you check?
Response: yes

Request: Please let me know if O=C1C(Cl)=C(N/N=c2/[nH][nH]/c(=N/NC3=C(Cl)C(=O)c4ccccc4C3=O)c3ccccc23)C(=O)c2ccccc21 shows growth below 70%.
Response: no

Request: Criterion: growth strictly below 70%. Is it met by COc1cc(/C=C/C(=O)c2c(C)nc3ccccc3c2C)ccc1OCCCOc1cc2c(cc1OC)C(=O)N1CCC[C@H]1C=N2 ?
Response: yes

Request: Does the reported growth of COc1ccc(/C(=C\c2cc(OC)c(OC)c(OC)c2)C(=O)N2CCNCC2)cc1 stay below 70%?
Response: no

Request: For CN1CCN(c2ccc(N3Cc4ccccc4OC4=C3C(=O)c3c(O)ccc(O)c3C4=O)cn2)CC1 , is the recorded growth below the cut-off of 70%?
Response: yes

Request: Dear reviewer, please state whether COc1cc(NC(C)CCCN)c2ncccc2c1Oc1ccc(Cl)cc1 (centres undefined) has growth strictly beneath 70%.
Response: no

Request: Field: below-cutoff. Rule: recorded growth strictly less than 70%. Subject: CNCc1cccc2c1OCCOCCOCCC(C)S(=O)(=O)c1ccc(cc1)-c1cnc(N)c(n1)C(=O)N2 (centres undefined)
Response: yes

Request: Consider Oc1ccc(Nc2ncnc3c2sc2ncccc23)cc1 . Does its growth lie strictly below 70%?
Response: yes

Request: Report whether reported growth is lower than 70% (strictly) for Cc1cc(C)c([O-])c(CN(C)CCN(C)Cc2cc(C)cc(C)c2[O-])c1.O=C([O-])c1cccc(C(=O)[O-])n1.[Ti+4]
Response: yes

Request: Does the reported growth of the following molecule sit strictly below 70%? Cc1nc2ccc(Nc3nc(Cl)nc(N4CCOCC4)n3)cc2n1Cc1ccccc1
Response: no
